Each item that follows carries a reported COMT activity, SK-N-SH (% of control).
Biological target: COMT (Homo sapiens)
Construct: COMT activity was evaluated in cell monolayers by the ability to methylate adrenaline; host or cells: SK-N-SH cells
Assay: COMT activity in intact SK-N-SH cell monolayers
Type: cell-based
Conditions: SK-N-SH cells; test compound 100 nM; means±SEM, n=4-8
recorded endpoint: COMT activity, SK-N-SH (% of control)

> print(dat)
                                   compound  experimental.result
1       CCCCC(=O)c1ccc(O)c(O)c1[N+](=O)[O-]  24 ± 4 % of control
2  CCN(CC)C(=O)C1CCCN(CCC(=O)c2ccc(O)c(O)c2[N+](=O)[O-])C1 (centres unmarked)  13 ± 2 % of control
3  CCCC(=O)Oc1ccc(C(=O)c2ccccc2)c([N+](=O)[O-])c1OC(=O)CCC   0 ± 0 % of control
4  O=C1CCc2cc(O)c(O)c([N+](=O)[O-])c21 [Compound 2, 5,6-Dihydroxy-7-nitro-indan-1-one]  24 ± 1 % of control
5  CC1CC(C)CN(CCC(=O)c2ccc(O)c(O)c2[N+](=O)[O-])C1 (centres unmarked)  13 ± 1 % of control
6  O=C1C(=Cc2ccc(O)c(O)c2)Cc2cc(O)c(O)c([N+](=O)[O-])c21  34 ± 1 % of control
7  COc1ccc(N2CCN(CCC(=O)c3ccc(O)c(O)c3[N+](=O)[O-])CC2)cc1   6 ± 2 % of control
8  CCOC(=O)Oc1ccc(C(=O)CCCc2ccccc2)c([N+](=O)[O-])c1OC(=O)OCC   1 ± 0 % of control

###

Target: COMT (Homo sapiens, UniProt P21964)
Construct: COMT activity was evaluated in cell monolayers by the ability to methylate adrenaline; host or cells: SK-N-SH cells
Sequence (P21964 whole entry): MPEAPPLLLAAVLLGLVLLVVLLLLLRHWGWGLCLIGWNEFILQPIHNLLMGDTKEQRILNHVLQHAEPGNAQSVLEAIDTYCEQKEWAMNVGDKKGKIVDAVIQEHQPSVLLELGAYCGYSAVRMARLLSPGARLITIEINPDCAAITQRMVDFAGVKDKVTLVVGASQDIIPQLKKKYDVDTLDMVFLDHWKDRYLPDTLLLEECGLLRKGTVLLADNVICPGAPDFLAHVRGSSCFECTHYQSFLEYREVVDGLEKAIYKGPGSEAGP
Experiment: COMT activity in intact SK-N-SH cell monolayers
Assay type: cell-based
Conditions: SK-N-SH cells; test compound 100 nM; means±SEM, n=4-8
recorded endpoint: COMT activity, SK-N-SH (% of control)

> print(dat)
                                   compound                      recorded.endpoint  experimental.result
1  O=C1CCCc2cc(O)c(O)c([N+](=O)[O-])c21 [Compound 1]  COMT activity, SK-N-SH (% of control)  46 ± 1 % of control
2  O=[N+]([O-])c1c(O)c(O)cc2c1C(=NO)CC2 [Compound 6, 5,6-Dihydroxy-7-nitro-indan-1-one Oxime]  COMT activity, SK-N-SH (% of control)  39 ± 3 % of control
3  CC(=O)Oc1ccc(C(=O)C=Cc2ccccc2)c([N+](=O)[O-])c1OC(C)=O [Compound 40]  COMT activity, SK-N-SH (% of control)   8 ± 1 % of control
4  COc1ccc(C=C2CCc3cc(O)c(O)c([N+](=O)[O-])c3C2=O)cc1OC [Compound 4]  COMT activity, SK-N-SH (% of control)  25 ± 1 % of control
5  O=C(CCN1CCCCC1)c1ccc(O)c(O)c1[N+](=O)[O-] [Compound 27]  COMT activity, SK-N-SH (% of control)   5 ± 1 % of control
6  CC1CCN(CCC(=O)c2ccc(O)c(O)c2[N+](=O)[O-])CC1 [Compound 33]  COMT activity, SK-N-SH (% of control)  14 ± 0 % of control
7  COc1ccc(C=C2Cc3cc(O)c(O)c([N+](=O)[O-])c3C2=O)cc1OC [Compound 7]  COMT activity, SK-N-SH (% of control)  23 ± 1 % of control
8  O=C(CCN1CCN(c2cccc(C(F)(F)F)c2)CC1)c1ccc(O)c(O)c1[N+](=O)[O-] [Compound 38]  COMT activity, SK-N-SH (% of control)   6 ± 1 % of control
9  O=C(CCCc1ccccc1)c1ccc(O)c(O)c1[N+](=O)[O-] [Compound 15]  COMT activity, SK-N-SH (% of control)  13 ± 4 % of control

###

Molecular target: COMT (Homo sapiens)
Construct: COMT activity was evaluated in cell monolayers by the ability to methylate adrenaline; host or cells: SK-N-SH cells
Assay: COMT activity in intact SK-N-SH cell monolayers
Format: cell-based
Settings: SK-N-SH cells; test compound 100 nM; means±SEM, n=4-8
Each item that follows carries a reported COMT activity, SK-N-SH (% of control).
recorded endpoint: COMT activity, SK-N-SH (% of control)

> print(dat)
                                    molecule  experimental.result
 1  O=C(C=Cc1ccccc1)c1ccc(O)c(O)c1[N+](=O)[O-]   5 ± 0 % of control
 2  CCCC(=O)Oc1ccc(C(=O)CCCc2ccccc2)c([N+](=O)[O-])c1OC(C)=O   2 ± 1 % of control
 3  CN(C)c1ccc(C=C2Cc3cc(O)c(O)c([N+](=O)[O-])c3C2=O)cc1  48 ± 3 % of control
 4  CC(=O)Oc1cc2c(c([N+](=O)[O-])c1OC(C)=O)C(=O)C(C)(C)CC2  39 ± 1 % of control
 5  CCOC(=O)Oc1cc(C(=O)c2ccccc2)c(C(=O)c2ccccc2)c([N+](=O)[O-])c1OC(=O)OCC  24 ± 1 % of control
 6  O=C(CCN1CCOCC1)c1ccc(O)c(O)c1[N+](=O)[O-]  12 ± 1 % of control
 7  O=C(CCN1CCC(Cc2ccccc2)CC1)c1ccc(O)c(O)c1[N+](=O)[O-]   9 ± 2 % of control
 8  CCOC(=O)Oc1ccc(C(=O)Cc2ccccc2)c([N+](=O)[O-])c1OC(=O)OCC   7 ± 3 % of control
 9  O=C1c2c(cc(O)c(O)c2[N+](=O)[O-])CC1CN1CCOCC1 (centres unmarked)  21 ± 1 % of control
10  COc1cc(C=C2Cc3cc(O)c(O)c([N+](=O)[O-])c3C2=O)cc([N+](=O)[O-])c1O  24 ± 2 % of control
11  COc1cc(C=C2CCc3cc(O)c(O)c([N+](=O)[O-])c3C2=O)cc([N+](=O)[O-])c1O  47 ± 2 % of control
12  CC(=O)OC(=Cc1ccccc1)c1ccc(OC(C)=O)c(OC(C)=O)c1[N+](=O)[O-]   1 ± 1 % of control
13  O=C1c2c(cc(O)c(O)c2[N+](=O)[O-])CC1CN1CCN(c2ccccc2)CC1 (centres unmarked)   9 ± 2 % of control
14  CN(C)c1ccc(C=C2CCc3cc(O)c(O)c([N+](=O)[O-])c3C2=O)cc1   8 ± 1 % of control
15  O=C(CCc1ccccc1)c1ccc(O)c(O)c1[N+](=O)[O-]   5 ± 2 % of control
16  O=C1c2ccccc2C(=O)c2c1cc(O)c(O)c2[N+](=O)[O-] [Compound 18, 2,3-Dihydroxy-1-nitro-anthraquinone]  70 ± 5 % of control
17  O=C(CCN1CCCC1)c1ccc(O)c(O)c1[N+](=O)[O-]   7 ± 0 % of control

###

Test system: COMT
Experiment: COMT activity (methylation of adrenaline to metanephrine) in rat liver homogenates
Type: biochemical
Conditions: rat liver homogenate; test compound 3 μM; means±SEM, n=4-8
Each item that follows carries a reported COMT activity, Liver (% of control).
recorded endpoint: COMT activity, Liver (% of control)

> print(dat)
                                    compound  assayed.target     experimental.result
 1  COc1ccc(C=C2Cc3cc(O)c(O)c([N+](=O)[O-])c3C2=O)cc1OC            COMT  0.6 ± 0.3 % of control
 2  CC1CCN(CCC(=O)c2ccc(O)c(O)c2[N+](=O)[O-])CC1            COMT  2.2 ± 0.3 % of control
 3  CCOC(=O)Oc1cc(C(=O)c2ccccc2)c(C(=O)c2ccccc2)c([N+](=O)[O-])c1OC(=O)OCC            COMT  2.5 ± 1.2 % of control
 4  CCN(CC)C(=O)C1CCCN(CCC(=O)c2ccc(O)c(O)c2[N+](=O)[O-])C1 (centres unmarked)            COMT  1.7 ± 0.6 % of control
 5  O=C1C(=Cc2ccc(O)c(O)c2)CCc2cc(O)c(O)c([N+](=O)[O-])c21            COMT  2.3 ± 0.1 % of control
 6  CC(=O)Oc1ccc(C(=O)C=Cc2ccccc2)c([N+](=O)[O-])c1OC(C)=O            COMT  1.6 ± 0.4 % of control
 7  O=C1c2ccccc2C(=O)c2c1cc(O)c(O)c2[N+](=O)[O-] [Compound 18, 2,3-Dihydroxy-1-nitro-anthraquinone]            COMT  2.0 ± 0.0 % of control
 8  CCOC(=O)Oc1ccc(C(=O)c2ccccc2)c([N+](=O)[O-])c1OC(=O)OCC            COMT  0.3 ± 0.2 % of control
 9  CCCC(=O)Oc1ccc(C(=O)CCCc2ccccc2)c([N+](=O)[O-])c1OC(C)=O            COMT  0.6 ± 0.5 % of control
10  COc1ccc(C=C2CCc3cc(O)c(O)c([N+](=O)[O-])c3C2=O)cc1OC            COMT  2.0 ± 1.0 % of control
11  COc1cc(C=C2Cc3cc(O)c(O)c([N+](=O)[O-])c3C2=O)cc([N+](=O)[O-])c1O            COMT  0.3 ± 0.1 % of control
12  O=C1c2c(cc(O)c(O)c2[N+](=O)[O-])CC1CN1CCOCC1 (centres unmarked)            COMT  0.6 ± 0.0 % of control
13  O=C1c2c(cc(O)c(O)c2[N+](=O)[O-])CC1CN1CCN(c2cccc(C(F)(F)F)c2)CC1 (centres unmarked)            COMT  0.9 ± 0.2 % of control
14  O=C(CCc1ccccc1)c1ccc(O)c(O)c1[N+](=O)[O-]            COMT  0.3 ± 0.0 % of control
15  O=C(CCN1CCC(Cc2ccccc2)CC1)c1ccc(O)c(O)c1[N+](=O)[O-]            COMT  2.2 ± 0.4 % of control
16  CC(=O)Oc1ccc(C(=O)CCCc2ccccc2)c([N+](=O)[O-])c1OC(C)=O            COMT  1.4 ± 0.8 % of control
17       CCCCC(=O)c1ccc(O)c(O)c1[N+](=O)[O-]            COMT  0.4 ± 0.0 % of control
